System: U-266 (Plasma Cell Myeloma)
Assay: Bliss excess, mean over the matrix (fraction); higher = more synergy
Please note: 1 applies when Bliss excess is 0.07 or greater, and 0 applies otherwise.

Here's what some known entries look like.
molecule="C[C@@H](c1ccc2nccn2c1)n1nnc2ncc(-c3cnn(C)c3)nc21 [Savolitinib] + CC1(C)CCC(CN2CCN(c3ccc(C(=O)NS(=O)(=O)c4ccc(NCC5CCOCC5)c([N+](=O)[O-])c4)c(Oc4cnc5[nH]ccc5c4)c3)CC2)=C(c2ccc(Cl)cc2)C1 [Venetoclax] (first compound max 1 µM, 7x7, partner max 1 µM)" class_name=0
molecule="CN(CCO)CC[C@H](CSc1ccccc1)Nc1ccc(S(=O)(=O)NC(=O)c2ccc(N3CCC([C@@H](O)c4ccccc4-c4ccc(Cl)cc4)CC3)cc2)cc1S(=O)(=O)C(F)(F)F [AZD4320] + C=CCn1c(=O)c2cnc(Nc3ccc(N4CCN(C)CC4)cc3)nc2n1-c1cccc(C(C)(C)O)n1 [AZD1775] (first compound max 1 µM, partner max 1 µM)" class_name=1
molecule="CC(=O)Nc1cccc(-n2c(=O)n(C3CC3)c(=O)c3c(Nc4ccc(I)cc4F)n(C)c(=O)c(C)c32)c1 [Trametinib] + Cc1nc(-c2cn3c(n2)-c2ccc(-c4cnn(C(C)(C)C(N)=O)c4)cc2OCC3)n(C(C)C)n1 [Taselisib] (first compound max 1 µM, 7x7, partner max 10 µM)" class_name=1
molecule="Cc1c2c(nn1C)CSCc1cc(n(C)n1)CSc1cc(c3ccccc3c1)OCCCc1c(C(=O)O)n(C)c3c-2c(Cl)ccc13 [AZD5991] + C1CN(CCC1(C(=O)N[C@@H](CCO)C2=CC=C(C=C2)Cl)N)C3=NC=NC4=C3C=CN4 [Capivasertib] (first compound max 1 µM, 7x7, partner max 3 µM)" class_name=0

Kindly determine if Bliss excess recorded for N#Cc1cnc(Nc2cc(NC[C@H]3CNCCO3)c(C(F)(F)F)cn2)cn1 [SRA737] + O=c1[nH]cc(F)c(=O)[nH]1 [5-Fluorouracil] (first compound max 10 µM, 7x7, partner max 20 µM) is above or exactly 0.07.
0

----------
Recorded Bliss excess, one value per entry.
Tested on: SUIT-2 (Pancreatic Carcinoma)
Test: Bliss excess, mean over the matrix (fraction); higher = more synergy
I'd appreciate a reply containing only the number, no unit.

compound="Cn1cnc2c(F)c(Nc3ccc(Br)cc3Cl)c(C(=O)NOCCO)cc21 [Selumetinib] + C=CCn1c(=O)c2cnc(Nc3ccc(N4CCN(C)CC4)cc3)nc2n1-c1cccc(C(C)(C)O)n1 [AZD1775] (first compound max 10 µM, partner max 1 µM)" observed_measurement=-0.0417

We next turn to a different compound, shown below.
Given the entry COc1nnc2ccc(N3CCC(c4ccc(OCCN5CCN(C)C(=O)[C@H]5C)cc4)CC3)nn12 [AZD5153] + C=CCn1c(=O)c2cnc(Nc3ccc(N4CCN(C)CC4)cc3)nc2n1-c1cccc(C(C)(C)O)n1 [AZD1775] (first compound max 1 µM, partner max 1 µM) , report its measured Bliss excess.
0.0152

----------
Recorded combination Emax, one value per entry.
Tested on: KARPAS-620 (Plasma Cell Myeloma)
Assay: combination Emax (second highest fraction inhibited in the dose matrix, 72 h); higher = more inhibition; extreme values may be limits of the assay
I'd appreciate a reply containing only the number, no unit.

For orientation, consider the following solved cases.
compound="C=CCn1c(=O)c2cnc(Nc3ccc(N4CCN(C)CC4)cc3)nc2n1-c1cccc(C(C)(C)O)n1 [AZD1775] + CCc1c2c(nc3ccc(O)cc13)-c1cc3c(c(=O)n1C2)COC(=O)[C@]3(O)CC [SN-38] (first compound max 1 µM, partner max 0.3 µM)" tested_system="KARPAS-620 (Plasma Cell Myeloma)" observed_measurement=0.546
compound="Cc1cc2ncnn2cc1Nc1ncc2c(n1)n(C1CCOCC1)c(=O)n2C [AZD7648] + C[C@@H]1COCCN1C2=NC(=NC(=C2)C3(CC3)[S@](=N)(=O)C)C4=C5C=CNC5=NC=C4 [AZD6738] (first compound max 10 µM, 7x7, partner max 10 µM)" tested_system="KARPAS-620 (Plasma Cell Myeloma)" observed_measurement=0.539
compound="Cc1c2c(nn1C)CSCc1cc(n(C)n1)CSc1cc(c3ccccc3c1)OCCCc1c(C(=O)O)n(C)c3c-2c(Cl)ccc13 [AZD5991] + CCN(CCO)CCCOc1ccc2c(Nc3cc(CC(=O)Nc4cccc(F)c4)[nH]n3)ncnc2c1 [AZD2811] (first compound max 1 µM, 7x7, partner max 1 µM)" tested_system="KARPAS-620 (Plasma Cell Myeloma)" observed_measurement=1
compound="CN(CCO)CC[C@H](CSc1ccccc1)Nc1ccc(S(=O)(=O)NC(=O)c2ccc(N3CCC([C@@H](O)c4ccccc4-c4ccc(Cl)cc4)CC3)cc2)cc1S(=O)(=O)C(F)(F)F [AZD4320] + C[C@@H](Nc1cc(F)cc(F)c1)c1cc(C(=O)N(C)C)cc2c(=O)cc(N3CCOCC3)oc12 [AZD8186] (first compound max 1 µM, 7x7, partner max 3 µM)" tested_system="KARPAS-620 (Plasma Cell Myeloma)" observed_measurement=1
compound="CN(CCO)CC[C@H](CSc1ccccc1)Nc1ccc(S(=O)(=O)NC(=O)c2ccc(N3CCC([C@@H](O)c4ccccc4-c4ccc(Cl)cc4)CC3)cc2)cc1S(=O)(=O)C(F)(F)F [AZD4320] + C[C@@H]1COCCN1C2=NC(=NC(=C2)C3(CC3)[S@](=N)(=O)C)C4=C5C=CNC5=NC=C4 [AZD6738] (first compound max 1 µM, 7x7, partner max 10 µM)" tested_system="KARPAS-620 (Plasma Cell Myeloma)" observed_measurement=1
compound="Cc1nc(-c2cn3c(n2)-c2ccc(-c4cnn(C(C)(C)C(N)=O)c4)cc2OCC3)n(C(C)C)n1 [Taselisib] + O=C(Nc1ccc2[nH]nc(-c3ccncc3)c2c1)[C@@H]1CCN(CC(=O)N2CCN(c3ccc(-c4ncccn4)cc3)CC2)C1 [SCH772984] (first compound max 10 µM, 7x7, partner max 5 µM)" tested_system="KARPAS-620 (Plasma Cell Myeloma)" observed_measurement=0.969
compound="COc1nnc2ccc(N3CCC(c4ccc(OCCN5CCN(C)C(=O)[C@H]5C)cc4)CC3)nn12 [AZD5153] + CC1(C)CCC(CN2CCN(c3ccc(C(=O)NS(=O)(=O)c4ccc(NCC5CCOCC5)c([N+](=O)[O-])c4)c(Oc4cnc5[nH]ccc5c4)c3)CC2)=C(c2ccc(Cl)cc2)C1 [Venetoclax] (first compound max 1 µM, 7x7, partner max 1 µM)" tested_system="KARPAS-620 (Plasma Cell Myeloma)" observed_measurement=0.927
compound="COc1nnc2ccc(N3CCC(c4ccc(OCCN5CCN(C)C(=O)[C@H]5C)cc4)CC3)nn12 [AZD5153] + CCN(CCO)CCCOc1ccc2c(Nc3cc(CC(=O)Nc4cccc(F)c4)[nH]n3)ncnc2c1 [AZD2811] (first compound max 1 µM, 7x7, partner max 1 µM)" tested_system="KARPAS-620 (Plasma Cell Myeloma)" observed_measurement=0.75

Given the entry CN(CCO)CC[C@H](CSc1ccccc1)Nc1ccc(S(=O)(=O)NC(=O)c2ccc(N3CCC([C@@H](O)c4ccccc4-c4ccc(Cl)cc4)CC3)cc2)cc1S(=O)(=O)C(F)(F)F [AZD4320] + CC(=O)O[C@H]1C(=O)[C@@]2(C)[C@H]([C@H](OC(=O)c3ccccc3)[C@]3(O)C[C@H](OC(=O)[C@H](O)[C@@H](NC(=O)c4ccccc4)c4ccccc4)C(C)=C1C3(C)C)[C@]1(OC(C)=O)CO[C@@H]1C[C@@H]2O [Paclitaxel] (first compound max 1 µM, 7x7, partner max 3 µM) , report its measured combination Emax.
1

Given the entry C[C@@H]1COCCN1c1cc(C2([S@](C)(=N)=O)CC2)nc(-c2ccnc3[nH]ccc23)n1 [AZD6738] + C1CC(C1)(C(=O)[O-])C(=O)[O-].N.N.[Pt+2] [Carboplatin] (first compound max 10 µM, 7x7, partner max 10 µM) , report its measured combination Emax.
0.399

Given the entry CN(CCO)CC[C@H](CSc1ccccc1)Nc1ccc(S(=O)(=O)NC(=O)c2ccc(N3CCC([C@@H](O)c4ccccc4-c4ccc(Cl)cc4)CC3)cc2)cc1S(=O)(=O)C(F)(F)F [AZD4320] + CN(C)CCCOc1ccc(-c2ccc3ncc4c(c3c2)n(C2CCOCC2)c(=O)n4C)cn1 [AZD0156] (first compound max 1 µM, 7x7, partner max 1 µM) , report its measured combination Emax.
1

Given the entry N#Cc1cnc(Nc2cc(NC[C@H]3CNCCO3)c(C(F)(F)F)cn2)cn1 [SRA737] + CCc1c2c(nc3ccc(O)cc13)-c1cc3c(c(=O)n1C2)COC(=O)[C@]3(O)CC [SN-38] (first compound max 10 µM, 7x7, partner max 0.3 µM) , report its measured combination Emax.
0.658
